Experiment: Cytotoxicity against unstimulated human blood Leucocytes assessed as cell viability at 6.25 to 100 uM incubated for 24 to 72 hrs by MTT assay
Conditions: leucocyte
Measured attribute: Activity

Would you please look over these solved cases?
Chem smiles	Activity
CCOC(=O)CCCNc1c2ccccc2nc2ccccc12	Non-Toxic
CCCOC(=O)CCNc1c2ccccc2nc2ccccc12	Non-Toxic
CCCOC(=O)CCCNc1c2ccccc2nc2ccccc12	Non-Toxic
CCOC(=O)CCNc1c2ccccc2nc2ccccc12	Non-Toxic

Consider the additional compound presented here.
// fetch Activity given entry COc1cc(NS(C)(=O)=O)ccc1Nc1c2ccccc2nc2ccccc12 Toxic
